Value source: ChEMBL document CHEMBL5120865

- Experiment Description: Metabolic stability in golden hamster liver microsomes S9 fraction assessed as UGT-mediated metabolism by measuring parent compound remaining measured after 15 mins in presence of NADPH
- Type: ADME, subcellular, Mesocricetus auratus
- Condition Description: read-out: Stability
Reported Property: remaining at 0.25 h (%)

>>> reported_result("Cc1ncnc2c1c(-c1cc(Cl)ccn1)cn2[C@@H]1O[C@H](CO)[C@@H](O)[C@H]1O")
98
>>> reported_result("Cc1ncnc2c1c(-c1ncccc1Cl)cn2[C@@H]1O[C@H](CO)[C@@H](O)[C@H]1O")
95

====

- Experiment Description: AUC (0 to 8) in golden hamster infected with Leishmania infantum MHOM/MA(BE)/67 amastigotes at 50 mg/kg, po SID and measured after 24 hrs by LC-MS/MS analysis
- Type: ADME, organism-based, Mesocricetus auratus
- Parameters: dose 50 mg/kg, time 24 hrs, route po
- Condition Description: in vivo
Reported Property: AUC at 24 h

>>> reported_result("Cc1ncnc2c1c(-c1cc(Cl)ccn1)cn2[C@@H]1O[C@H](CO)[C@@H](O)[C@H]1O")
"1660 ng·h/mL"
